Give measured inhibition at 10 µM for each item. Keep answers brief.
# Tested target: human MAGL (His-hMAGL) (Homo sapiens)
# Construct: made in house; host or cells: Escherichia coli BL21(DE3)
# Sequence (Q99685 1-303): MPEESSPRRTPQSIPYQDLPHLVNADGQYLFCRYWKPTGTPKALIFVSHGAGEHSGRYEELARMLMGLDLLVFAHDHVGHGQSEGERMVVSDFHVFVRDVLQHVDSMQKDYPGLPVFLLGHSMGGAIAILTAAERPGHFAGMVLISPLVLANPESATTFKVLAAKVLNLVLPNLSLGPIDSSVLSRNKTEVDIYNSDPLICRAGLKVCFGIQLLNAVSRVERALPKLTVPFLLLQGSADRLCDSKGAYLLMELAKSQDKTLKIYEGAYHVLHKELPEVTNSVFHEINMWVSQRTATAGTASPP
# Measurement notes: Measurement of MAGL inhibitory activity by mass spectrometry
# Format: biochemical
# Condition description: 10 μM test compound; substrate 2-arachidonylglycerol, arachidonic acid by RapidFire-mass spectrometry
# Procedure: Thereafter, to each well was added 150 μM 2-arachidonylglycerol (Tocris Bioscience) by 5 μL, and the mixture was incubated at room temperature for 10 min. […] The amount of arachidonic acid in the obtained enzyme reaction mixture was calculated by measuring by RapidFire-mass spectrometry and correcting by the amount of arachidonic acid-d8. […] The peak area integration was analyzed using RapidFire integrator software version 3.6 (Agilent Technologies, Inc.). […]
Numbers only, in %.

Solved entries (count: 2):
Molecule: O=C(c1nccs1)N1CCN(C2CC(=O)N(c3cccc(OC(F)(F)F)c3)C2)CC1 (stereo not drawn)
Tested target: human MAGL (His-hMAGL) (Homo sapiens)
inhibition at 10 µM / %: 95
--
Molecule: Cc1nc(C)c(-c2cccc(N3CC(N4CCN(C(=O)c5nccs5)CC4)CC3=O)c2)s1 (stereo not drawn)
Tested target: human MAGL (His-hMAGL) (Homo sapiens)
inhibition at 10 µM / %: 100

Could you now consider this next molecule?
State the recorded inhibition at 10 µM for this entry: Cc1ncccc1-c1cccc(N2CC(N3CCN(C(=O)c4cscn4)CC3)CC2=O)c1 (stereo not drawn) 97

###

Give measured inhibition at 10 µM for each item. Keep answers brief.
# Tested target: human MAGL (His-hMAGL) (Homo sapiens, UniProt Q99685)
# Construct: made in house; host or cells: Escherichia coli BL21(DE3)
# Measurement notes: Measurement of MAGL inhibitory activity by absorbance
# Format: biochemical
# Condition description: 10 μM test compound; substrate p-nitrophenyl acetate, absorbance at 405 nm
Answers are plain numbers, in %.

Solved entries (count: 7):
Molecule: COc1cccc(Oc2ccc(N3CC(N4CCN(C(=O)c5nccs5)CC4)CC3=O)cc2)c1 (centres unmarked)
Units text: %
Value: 97

Molecule: O=C(c1nccs1)N1CCN([C@@H]2CC(=O)N(c3ccc4c(ccn4-c4ncc(C(F)(F)F)cn4)c3)C2)CC1
Units text: %
Value: 100

Molecule: O=C(c1nccs1)N1CCN(C2CC(=O)N(c3ccc4[nH]ncc4c3)C2)CC1 (centres unmarked)
Units text: %
Value: 96

Molecule: O=C(c1nccs1)N1CCN(C2CC(=O)N(c3cccc(-c4ccncc4)c3)C2)CC1 (centres unmarked)
Units text: %
Value: 91

Molecule: O=C(c1nccs1)N1CCN(C2CC(=O)N(c3cccc(-c4ccccn4)c3)C2)CC1 (centres unmarked)
Units text: %
Value: 90

Molecule: O=C(c1nccs1)N1CCN(C2CC(=O)N(c3ccc(OCc4ccccc4)cc3)C2)CC1 (centres unmarked)
Units text: %
Value: 98

Molecule: O=C(c1nccs1)N1CCN(C2CC(=O)N(c3ccc4c(cnn4-c4ccc(Cl)cn4)c3)C2)CC1 (centres unmarked)
Units text: %
Value: 99

State the recorded inhibition at 10 µM for this entry: O=C(c1nccs1)N1CCN(C2CC(=O)N(c3ccc4c(ccn4-c4ncc(Cl)cn4)c3)C2)CC1 (centres unmarked) 96

###

# Tested target: human MAGL (His-hMAGL) (Homo sapiens)
# Construct: made in house; host or cells: Escherichia coli BL21(DE3)
# Measurement notes: Measurement of MAGL inhibitory activity by mass spectrometry
# Assay type: biochemical
# Condition description: MAGL inhibitory rate, test compound 10 μM, His-hMAGL, substrate 2-arachidonylglycerol, RapidFire-mass spectrometry
Give measured inhibition at 10 µM for each item. Keep answers brief.
Give bare numbers, in %.

Solved entries (count: 5):
Molecule: CC(C)(C)CC(=O)N1CCc2cc(N3CC(N4CCN(c5ncccn5)CC4)CC3=O)ccc21 (stereo not drawn)
Property name: inhibition at 10 µM
Value: 94

Molecule: O=C(c1nccs1)N1CCN([C@@H]2CC(=O)N(c3ccc4c(c3)CCN4c3cnc(C(F)(F)F)cn3)C2)CC1
Property name: inhibition at 10 µM
Value: 96

Molecule: O=C(c1nccs1)N1CCN(C2CC(=O)N(c3ccc(-c4ccncc4)cc3)C2)CC1 (stereo not drawn)
Property name: inhibition at 10 µM
Value: 83

Molecule: O=C(c1nccs1)N1CCN([C@@H]2CC(=O)N(c3ccc4c(c3)CCN4c3cc(C(F)(F)F)ncn3)C2)CC1
Property name: inhibition at 10 µM
Value: 100

Molecule: O=C(c1nccs1)N1CCN(C2CC(=O)N(c3ccc4c(c3)CCN4C(=O)C3CCOCC3)C2)CC1 (stereo not drawn)
Property name: inhibition at 10 µM
Value: 96

// batch mode: one inhibition at 10 µM value per listed entry
1. O=C(c1nccs1)N1CCN(C2CC(=O)N(c3cccc(-c4cccc(F)c4F)c3)C2)CC1 (stereo not drawn)
2. O=C(c1nccs1)N1CCN(C2CC(=O)N(c3ccc(F)c(-c4ccc(F)cc4Cl)c3)C2)CC1 (stereo not drawn)
3. O=C(c1cscn1)N1CCN([C@@H]2CC(=O)N(c3ccc4c(ccn4-c4cccc(F)c4)c3)C2)CC1

[102, 102, 99]

// batch mode: one inhibition at 10 µM value per listed entry
1. O=C(c1nccs1)N1CCN(C2CC(=O)N(c3cccc(-c4cnc5ccccn45)c3)C2)CC1 (stereo not drawn)
2. O=C(c1nccs1)N1CCN([C@@H]2CC(=O)N(c3cc4ccn(-c5ccc(C(F)(F)F)cn5)c4cn3)C2)CC1
3. Cc1cc(C#N)ccc1-c1cccc(N2CC(N3CCN(C(=O)c4nccs4)CC3)CC2=O)c1 (stereo not drawn)
4. O=C(c1nccs1)N1CCN([C@@H]2CC(=O)N(c3ccc4c(c3)CCN4c3ncc(C(F)(F)F)cn3)C2)CC1
5. Cc1cc(F)ccc1-c1cccc(N2CC(N3CCN(C(=O)c4nccs4)CC3)CC2=O)c1 (stereo not drawn)

1: 101; 2: 94; 3: 103; 4: 101; 5: 104

// batch mode: one inhibition at 10 µM value per listed entry
1. CC1C(N2CCN(C(=O)c3nccs3)CC2)CC(=O)N1c1ccc2c(ccn2-c2ncc(C(F)(F)F)cn2)c1 (stereo not drawn)
2. O=C(c1nccs1)N1CCN(C2CC(=O)N(c3ccc(-c4ccoc4)cc3)C2)CC1 (stereo not drawn)
3. CC(C)CC(=O)N1CCc2cc(N3CC(N4CCN(C(=O)c5nccs5)CC4)CC3=O)ccc21 (stereo not drawn)
4. Cc1nc(C)c(-c2cccc(N3CC(N4CCN(C(=O)c5nccs5)CC4)CC3=O)c2)s1 (stereo not drawn)
5. NS(=O)(=O)c1ccc(-c2ccc(N3CC(N4CCN(C(=O)c5nccs5)CC4)CC3=O)cc2)cc1 (stereo not drawn)
6. N#Cc1cccc(-c2ccc(N3CC(N4CCN(C(=O)c5nccs5)CC4)CC3=O)cc2)c1 (stereo not drawn)
7. Cc1ccnc(-n2ccc3cc(N4CC(N5CCN(C(=O)c6nccs6)CC5)CC4=O)ccc32)c1 (stereo not drawn)
8. O=C(c1nccs1)N1CCN(C2CC(=O)N(c3cccc(-c4ccc(F)c(Cl)c4)c3)C2)CC1 (stereo not drawn)

100
98
101
102
97
100
103
101

###

# Tested target: human MAGL (His-hMAGL) (Homo sapiens, UniProt Q99685)
# Construct: made in house; host or cells: Escherichia coli BL21(DE3)
# Sequence (Q99685 1-303): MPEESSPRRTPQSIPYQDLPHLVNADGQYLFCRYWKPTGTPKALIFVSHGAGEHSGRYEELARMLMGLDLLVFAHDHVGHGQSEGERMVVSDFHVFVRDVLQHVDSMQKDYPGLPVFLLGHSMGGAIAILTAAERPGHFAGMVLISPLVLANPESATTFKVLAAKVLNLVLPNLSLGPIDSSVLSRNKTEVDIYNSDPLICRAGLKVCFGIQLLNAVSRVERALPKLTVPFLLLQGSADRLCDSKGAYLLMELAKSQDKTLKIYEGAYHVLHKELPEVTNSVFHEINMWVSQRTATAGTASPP
# Measurement notes: Measurement of MAGL inhibitory activity by mass spectrometry
# Format: biochemical
# Condition description: MAGL inhibitory rate, test compound 10 μM, His-hMAGL, substrate 2-arachidonylglycerol, RapidFire-mass spectrometry
Give measured inhibition at 10 µM for each item. Keep answers brief.
One number for each entry, in %.

Solved entries (count: 6):
Compound: O=C(c1nccs1)N1CCN(C2CC(=O)N(c3cccc(-c4c(F)cccc4Cl)c3)C2)CC1 (stereo not shown) [Example 344]
Property name: inhibition at 10 µM
Value: 98
--
Compound: Cc1cc(-c2ccc(N3CC(N4CCN(C(=O)c5nccs5)CC4)CC3=O)cc2)ccn1 (stereo not shown) [Example 264]
Property name: inhibition at 10 µM
Value: 92
--
Compound: O=C(c1nccs1)N1CCN(C2CC(=O)N(c3ccc(-c4cccnc4)cc3)C2)CC1 (stereo not shown) [Example 197]
Property name: inhibition at 10 µM
Value: 89
--
Compound: O=C1CC(N2CCN(c3ncccn3)CC2)CN1c1ccc2c(ccn2-c2ccnc(C(F)(F)F)c2)c1 (stereo not shown) [Example 361]
Property name: inhibition at 10 µM
Value: 92
--
Compound: O=C(c1nccs1)N1CCN(C2CC(=O)N(c3ccc4c(c3)CCN4C(=O)Cc3ccccc3Cl)C2)CC1 (stereo not shown) [Example 395]
Property name: inhibition at 10 µM
Value: 102
--
Compound: Cc1ccccc1-c1cccc(N2CC(N3CCN(C(=O)c4ncco4)CC3)CC2=O)c1 (stereo not shown) [Example 221]
Property name: inhibition at 10 µM
Value: 101

// batch mode: one inhibition at 10 µM value per listed entry
1. COc1ccccc1-c1cc(N2CC(N3CCN(C(=O)c4nccs4)CC3)CC2=O)cc2cc[nH]c12 (stereo not shown) [Example 354]
2. O=C(c1nccs1)N1CCN(C2CC(=O)N(c3ccc(-c4ccco4)cc3)C2)CC1 (stereo not shown) [Example 207]

[101, 97]

// batch mode: one inhibition at 10 µM value per listed entry
1. CC(=O)Nc1ccccc1-c1cccc(N2CC(N3CCN(C(=O)c4nccs4)CC3)CC2=O)c1 (stereo not shown) [Example 303]
2. O=C(c1nccs1)N1CCN(C2CC(=O)N(c3cccc(-c4ccc(Cl)cc4Cl)c3)C2)CC1 (stereo not shown) [Example 283]
3. CC(=O)Nc1cccc(-c2ccc(N3CC(N4CCN(C(=O)c5nccs5)CC4)CC3=O)cc2)c1 (stereo not shown) [Example 191]

1. 88
2. 101
3. 96

// batch mode: one inhibition at 10 µM value per listed entry
1. Cc1cnc(-n2ccc3cc(N4CC(N5CCN(C(=O)c6nccs6)CC5)CC4=O)ccc32)nc1 (stereo not shown) [Example 358]
2. O=C(c1cccc(-c2cccc(N3CC(N4CCN(C(=O)c5nccs5)CC4)CC3=O)c2)c1)N1CCCC1 (stereo not shown) [Example 321]

1. 102
2. 102
